# assay.explanation: Activity of CYP3A4/CYP1A2 in human liver microsomes assessed as intrinsic clearance for enzyme-mediated (R)-1-(4-(4-fluoro-2-(hydroxymethyl)-1H-indol-5-yloxy)-5-methylpyrrolo[1,2-f][1,2,4]triazin-6-yloxy)propan-2-ol formation per mg protein in presence of NADPH
# Assay type: ADME
measured.metric: CLint (µL/min/mg)
Please give a number only; it is taken to be in µL/min/mg.

query: What does the data say about its CLint? Entry: Cc1cc2c(F)c(Oc3ncnn4cc(OC[C@@H](C)O)c(C)c34)ccc2[nH]1 [BRIVANIB]
result: 3.1
